# target-system: T1, 006 PSMA Fab
# T1 construct: also called Anti-PSMA Fab
# test-summary: phage binding ELISA; biotinylated PSMA Fab on neutravidin plate pre-incubated with PSMA antigen as competitor, clonal phage supernatant, anti-M13 HRP detection
Where no end group is shown, it is not given here.
binders and their reported Phage binding ELISA signal, Anti-PSMA Fab with PSMA antigen
Reply with the value as a number alone.

Solved entries (count: 4):
- binder: "DYKWCTPPWMCYSA [Phage-2706]"
  measurement: 0.0621
- binder: "MDRWCTPAWMCEVH [Phage-2708]"
  measurement: 0.0734
- binder: "HWRMCVPTWMCHLD (cysteine pairing not given here; also: displayed on bacteriophage as fusion to pIII) [Phage-2695]"
  measurement: 0.15
- binder: "PDNWCIPAWMCERF [Phage-2709]"
  measurement: 0.0679

Bench note: what Phage binding ELISA signal, Anti-PSMA Fab with PSMA antigen did EEMWCIPVWMCEHQ [Phage-2696] show?
0.0935

Next: DNKMCIPVWMCERF [Phage-2698]
0.0685

Queued: FVKWCTPSWMCESQ [Phage-2697]
0.0785

Next binder: VGNWCIPLWMCAAE (cysteine pairing not given here; also: displayed on bacteriophage as fusion to pIII) [Phage-2704]
0.0867

Now try QVPWCTPAWMCERA [Phage-2702] .
0.126

Then this binder: IEKWCTPPWMCESS [Phage-2700]
0.104

Try the binder EQMWCTPAWMCTGF [Phage-2705]
0.0782

// same read-out, input: DHKWCTPPWMCAAD (cysteine pairing not given here; also: displayed on bacteriophage as fusion to pIII) [Phage-2707]
0.0877

Query DNMLCRPSWMCEGL [Phage-2701] next
0.0762

Please give the result for GSHWCEPLWMCSAF [Phage-2699] too.
0.0853

What do you get for TIKWCTPSWMCAEI (cysteine pairing not given here; also: displayed on bacteriophage as fusion to pIII) [Phage-2703] ?
0.105

Taken from patent US20260242478A1.
